Listed below are compounds with IC50 for BTK (Homo sapiens, UniProt Q06187), each taken from published literature.

Value wanted: IC50 (BTK (Homo sapiens, UniProt Q06187)) of entry CN(C/C=C/C(=O)N1CC[C@@H](n2nc(-c3ccc(F)cc3)c3c(N)ncnc32)C1)C1CCC1
< 100 nM

What measured IC50 is associated with O=C(NC1CCCc2cc(-c3ncnc4[nH]ncc34)ccc21)c1nc2c(s1)CCC2 (stereo not drawn) on BTK (Homo sapiens, UniProt Q06187)?
10 to 99 nM

Short answer please: IC50, BTK (Homo sapiens, UniProt Q06187), entry C=CC(=O)Nc1cccc(Oc2nc(Nc3ccc(NCCN(C)C)cc3)nc3ccsc23)c1
≤ 50 nM

Param readout= IC50; system= BTK (Homo sapiens, UniProt Q06187); entry= Cc1ccccc1C(=O)c1c[nH]c2nccc(-c3cccc(/C=C/C(=O)O)c3)c12 ; returns value.
≤ 10000 nM

What is its IC50 for BTK (Homo sapiens, UniProt Q06187)? Entry: CN(C/C=C/C(=O)N1CC[C@@H](n2c(C#N)c(-c3ccc(Oc4ccccc4)cc3)c3c(N)ncnc32)C1)[C@H]1CCOC1
< 100 nM

Can you look up IC50 on BTK (Homo sapiens, UniProt Q06187) for C=CC(=O)N1CCC[C@H]1Cn1nc(-c2ccc(Oc3cccc(C(F)F)c3)cc2)c2cncnc21 ?
< 100 nM

Lab note: need IC50 for Cn1cc(-c2cnc3[nH]cc(C(=O)c4c(F)ccc(NS(=O)(=O)c5cccc(OC(F)F)c5)c4Cl)c3c2)cn1 on BTK (Homo sapiens, UniProt Q06187), anyone have it?
≤ 10000 nM

Notebook entry, BTK (Homo sapiens, UniProt Q06187) assay: IC50 of CC(C)(C)OC1CN(C(=O)NC2CCCCc3cc(-c4ccnc(Nc5cnn(C6CCOCC6)c5)n4)ccc32)C1 (stereo not drawn) = ?
< 10 nM

Please tell me: IC50 of CN(C/C=C/C(=O)N1CC[C@@H](n2c(C3CC3)c(-c3ccc(Oc4cccc(F)c4)cc3)c3c(N)ncnc32)C1)C1CC1 , system BTK (Homo sapiens, UniProt Q06187)?
100 to 1000 nM

Hello, I am looking for reported IC50 with BTK (Homo sapiens, UniProt Q06187) for Cc1cc(-c2cc(Nc3cnn(C)n3)ncn2)ccc1CNC(=O)c1cnc(C(C)(C)C)s1 . Could you help?
< 10 nM

Form: Entry = CN(c1ncnc(N)c1C(N)=O)[C@H]1CCCN(C(=O)CNc2cc(Cl)cc(Cl)c2)C1 | System = BTK (Homo sapiens, UniProt Q06187) | IC50 = ____
> 10000 nM

What IC50 appears in the records for this compound with BTK (Homo sapiens, UniProt Q06187)? O=C(CNc1cc(Cl)cc(Cl)c1)N1CCC[C@@H](Nc2ncnc3[nH]ccc23)[C@H]1C(F)(F)F
Sequence (Q06187 whole entry): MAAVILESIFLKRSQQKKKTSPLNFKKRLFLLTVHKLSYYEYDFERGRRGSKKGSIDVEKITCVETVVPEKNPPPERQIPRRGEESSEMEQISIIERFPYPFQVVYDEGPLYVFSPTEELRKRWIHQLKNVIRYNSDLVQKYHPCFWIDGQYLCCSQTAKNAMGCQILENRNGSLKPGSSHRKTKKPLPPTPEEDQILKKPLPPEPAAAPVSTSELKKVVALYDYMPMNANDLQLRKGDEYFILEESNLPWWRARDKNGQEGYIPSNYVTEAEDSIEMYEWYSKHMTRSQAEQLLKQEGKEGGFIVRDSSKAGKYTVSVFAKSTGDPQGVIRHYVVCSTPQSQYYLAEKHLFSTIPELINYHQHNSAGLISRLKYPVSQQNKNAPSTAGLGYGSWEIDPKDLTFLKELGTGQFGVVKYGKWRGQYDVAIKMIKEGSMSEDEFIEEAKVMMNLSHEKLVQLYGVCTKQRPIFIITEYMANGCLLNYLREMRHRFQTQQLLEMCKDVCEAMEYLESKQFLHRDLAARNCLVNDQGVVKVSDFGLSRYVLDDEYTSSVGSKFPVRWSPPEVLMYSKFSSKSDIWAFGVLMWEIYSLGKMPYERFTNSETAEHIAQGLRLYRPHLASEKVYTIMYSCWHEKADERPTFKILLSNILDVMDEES
< 100 nM

Look up IC50 with BTK (Homo sapiens, UniProt Q06187) for this compound: CN(C/C=C/C(=O)Nc1cccc(-n2nc(-c3ccc(Cl)cc3)c3c(N)ncnc32)c1)C1CC1
< 100 nM

Param readout= IC50; system= BTK (Homo sapiens, UniProt Q06187); entry= CCCN(c1ncnc2[nH]ccc12)C1CCCN(C(=O)CNc2cc(Cl)cc(Cl)c2)C1 (stereo not drawn) ; returns value.
< 100 nM

Request: IC50, test system BTK (Homo sapiens, UniProt Q06187), entry CC#CC(=O)N1CC[C@@H](n2cc(-c3ccc(Oc4ccccc4Cl)cc3)c3c(N)n[nH]c(=O)c32)C1
10 to 1000 nM

Find IC50 (BTK (Homo sapiens, UniProt Q06187)) for the entry C=CC(=O)N1CCC[C@H](Nc2cc(CN3CCOCC3)cc(Nc3ncc(C(F)(F)F)s3)n2)C1
2 nM

Give recorded IC50 with BTK (Homo sapiens, UniProt Q06187) for the following compound: CN(C)C/C=C/C(=O)N(C)c1cccc(-n2c(=O)n(-c3ccc(C(=O)Nc4ccc(Cl)cn4)cc3)c3c(N)ncnc32)c1
< 100 nM

Enter reported IC50 observed with BTK (Homo sapiens, UniProt Q06187) for CC#CC(=O)N[C@@H](C)c1nc(-c2ccc(C(=O)Nc3ccc(C)cn3)c(OC)c2)c2c(N)nccn12
1.9 nM

# get_value(readout= IC50, system= BTK (Homo sapiens, UniProt Q06187)) for C=CC(=O)Nc1cccc(-c2cc(-c3ccc(Oc4ncccc4F)cc3F)cc3cncnc23)c1
< 100 nM

Return IC50 measured with BTK (Homo sapiens, UniProt Q06187) given this compound: C=CC(=O)N1CCC[C@H]1Cn1nc(-c2ccc(Oc3ccccc3)cc2)c2cnccc21
< 100 nM

Can you look up IC50 on BTK (Homo sapiens, UniProt Q06187) for C=CC(=O)N[C@H]1CC[C@@H](Nc2nc(Nc3ccc(NC4CCN(C)CC4)c(C)c3)nc3ccsc23)CC1 ?
50 to 100 nM

Provide value of IC50 for this record tested with BTK (Homo sapiens, UniProt Q06187): COc1cc(-n2c(=O)n([C@@H]3CCN(C(=O)/C=C/CN(C)C)C3)c3ncnc(N)c32)ccc1C
< 100 nM

Given the entry COc1cc(-c2nn([C@H]3CC[C@@H](N(C)C(=O)/C=C/CN(C)C)CC3)c3ncnc(N)c23)ccc1C , what IC50 was observed with BTK (Homo sapiens, UniProt Q06187)?
< 100 nM

Record C=CC(=O)N1CC[C@]2(C1)C[C@H](n1c(NC(=O)c3cccc(-c4cnco4)c3)nc3ccccc31)C2 : what is its IC50 with BTK (Homo sapiens, UniProt Q06187)?
13.7 nM

API: value(readout=IC50, system=BTK (Homo sapiens, UniProt Q06187)) for record Cc1ccc2c(N)c(C(N)=O)nnc2c1-c1ccc2c(c1)CNC2=O
6.31 nM

# returns recorded IC50 (system: BTK (Homo sapiens, UniProt Q06187)) for CN1CCN(c2cn3nccc3c(-c3ccc(CNC(=O)c4coc(C(C)(C)C)n4)c(F)c3)n2)CC1
10 to 1000 nM

What IC50 appears in the records for this compound with BTK (Homo sapiens, UniProt Q06187)? CS(=O)(=O)c1ccccc1NCC(=O)N[C@@H]1CCCN(c2ncnc3[nH]ccc23)C1
1000 to 10000 nM

Tell me reported IC50 for CCC[C@@H](Nc1cc(F)cc(Cl)c1)C(=O)N[C@@H]1CCCN(c2ncnc3[nH]ccc23)C1 , tested with BTK (Homo sapiens, UniProt Q06187).
< 100 nM

Reported IC50 for BTK (Homo sapiens, UniProt Q06187), given COc1cc(-c2nn(-c3ccc(F)c(N(C)C(=O)/C=C/CN(C)C4CC4)c3)c3ncnc(N)c23)ccc1C ?
< 100 nM

Which IC50 is reported with BTK (Homo sapiens, UniProt Q06187) for this entry: Cc1nnc(Nc2nccc(-c3ccc(CNC(=O)c4cnc(C(C)(C)C)s4)c(C)c3)n2)s1 ?
10 to 99 nM
